target.entity: mouse EP1 receptor (Mus musculus, UniProt P35375)
Sequence (P35375 whole entry): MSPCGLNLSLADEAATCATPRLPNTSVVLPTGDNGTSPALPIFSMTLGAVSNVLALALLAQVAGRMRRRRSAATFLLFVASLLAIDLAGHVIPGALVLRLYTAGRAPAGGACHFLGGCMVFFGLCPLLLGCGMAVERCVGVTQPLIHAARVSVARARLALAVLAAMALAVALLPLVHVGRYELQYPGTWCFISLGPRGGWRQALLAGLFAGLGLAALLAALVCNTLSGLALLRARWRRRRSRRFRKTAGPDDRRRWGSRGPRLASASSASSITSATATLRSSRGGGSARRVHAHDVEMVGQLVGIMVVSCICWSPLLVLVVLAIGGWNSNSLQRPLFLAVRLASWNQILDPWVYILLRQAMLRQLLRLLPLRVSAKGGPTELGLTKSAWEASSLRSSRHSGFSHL
assay.explanation: EP1 agonist activity (intracellular calcium concentration) in EP1-CHO cells
condition.parameters: EP1-CHO cells, intracellular calcium concentration; read-out: Agonist activity on various prostanoid receptors: EC50 value, EP1
endpoint.label: EC50 (µM)

(A) O=C(O)CCC[C@H]1CC[C@@H]2[C@@H](/C=C/[C@@H](O)COc3ccccc3)[C@H](O)C[C@@H]2OC1
(B) O=C(O)CCC[C@H]1CC[C@@H]2[C@@H](/C=C/[C@@H](O)COc3cc(F)ccc3F)[C@H](O)C[C@@H]2OC1
(C) O=C(O)CCC[C@H]1CC[C@@H]2[C@@H](/C=C/[C@@H](O)COc3cccc(Cl)c3)[C@H](O)C[C@@H]2OC1
stdin: Sort entries by EC50 from minimum to maximum value. I would appreciate it if you listed the labels in the requested order.
stdout: A, B, C

###

target.entity: mouse FP receptor (Mus musculus, UniProt P43117)
Sequence (P43117 whole entry): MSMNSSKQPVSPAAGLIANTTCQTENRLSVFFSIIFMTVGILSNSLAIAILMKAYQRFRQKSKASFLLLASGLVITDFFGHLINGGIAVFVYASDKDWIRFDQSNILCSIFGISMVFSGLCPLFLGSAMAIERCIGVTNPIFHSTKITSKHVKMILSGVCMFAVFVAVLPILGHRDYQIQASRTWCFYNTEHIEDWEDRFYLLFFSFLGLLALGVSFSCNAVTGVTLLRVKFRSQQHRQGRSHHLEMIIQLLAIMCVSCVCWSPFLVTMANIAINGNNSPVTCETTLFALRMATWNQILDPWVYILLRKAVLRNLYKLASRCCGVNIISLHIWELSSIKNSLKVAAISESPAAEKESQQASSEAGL
assay.explanation: FP agonist activity (intracellular calcium concentration) in FP-CHO cells
condition.parameters: FP-CHO cells, intracellular calcium concentration; read-out: Agonist activity on various prostanoid receptors: EC50 value, FP
endpoint.label: EC50 (nM)

stdin: Sample O=C(O)CCC[C@H]1CC[C@@H]2[C@@H](/C=C/[C@@H](O)COc3cccc(Cl)c3)[C@H](O)C[C@@H]2OC1 [Example 17 (3)] — what was its EC50?
stdout: 3

stdin: Tell me the measured EC50 of Cc1cccc(OC[C@H](O)/C=C/[C@@H]2[C@H]3CC[C@H](CCCC(=O)O)CO[C@H]3C[C@H]2O)c1 [Example 17 (4)] , please.
stdout: 8.8

stdin: Entry under review: O=C(O)CCC[C@H]1CC[C@@H]2[C@@H](/C=C/[C@@H](O)COc3ccccc3)[C@H](O)C[C@@H]2OC1 [Example 17 (23)] . Reported EC50?
stdout: 8.3

stdin: Query (compound): O=C(O)CCC[C@H]1CC[C@@H]2[C@@H](/C=C/C(F)(F)COc3ccccc3)[C@H](O)C[C@@H]2OC1 [Example 32] ; field requested: EC50
stdout: 1.6

(I) O=C(O)COC[C@H]1CC[C@@H]2[C@@H](/C=C/[C@@H](O)COc3cc(F)cc(Cl)c3)[C@H](O)C[C@@H]2OC1 [Example 29 (12)]
(II) O=C(O)CCC[C@H]1CC[C@@H]2[C@@H](/C=C/[C@@H](O)COc3cc(F)ccc3F)[C@H](O)C[C@@H]2OC1 [Example 17 (25)]
stdin: Quick one: lower EC50, I or II ? Your answer should be the label of the entry you select.
stdout: II
(II: 2.4 nM, I: 7.1 nM)

###

Catalogue of EC50 readings, one per entry.
target.entity: mouse EP1 receptor (Mus musculus, UniProt P35375)
assay.explanation: EP1 agonist activity (intracellular calcium concentration) in EP1-CHO cells
condition.parameters: EP1-CHO cells, intracellular calcium concentration; read-out: Agonist activity on various prostanoid receptors: EC50 value, EP1

stdin: Which measured EC50 value corresponds to O=C(O)CCC[C@H]1CC[C@@H]2[C@@H](/C=C/C(F)(F)COc3ccccc3)[C@H](O)C[C@@H]2OC1 ?
stdout: > 10 µM

stdin: Please look up its EC50: Cc1cccc(OC[C@H](O)/C=C/[C@@H]2[C@H]3CC[C@H](CCCC(=O)O)CO[C@H]3C[C@H]2O)c1
stdout: > 10 µM

API: the following record is the query input.
stdin: # EC50 lookup, item O=C(O)COC[C@H]1CC[C@@H]2[C@@H](/C=C/[C@@H](O)COc3cc(F)cc(Cl)c3)[C@H](O)C[C@@H]2OC1
stdout: > 10 µM

The measurements presented in this section are drawn from patent US11617733B2.
